Cited source for all entries: the supplement of paper PMC10126150

- Test system: ATP;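 note: ATP exposure 15 min at 22 °C before imaging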
- MEASUREMENT_NOTES: switch fluorescence ratio, 500 uM ATP over buffer (Cy3 cluster intensity, sum of 5 cycles each) (fold (ratio)); higher = stronger signal-on switching upon ATP binding; sequences stand for … in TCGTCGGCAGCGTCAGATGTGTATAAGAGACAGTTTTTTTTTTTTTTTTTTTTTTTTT…TC
- CONDITIONS: aptamer strand: ATP DNA aptamer (quencher-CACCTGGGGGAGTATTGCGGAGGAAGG + anchor), 100 nM annealed; ATP concentration: 500 uM
PROPERTY_NAME: switch fluorescence ratio
Just the number, please.

INSERT INTO results (residue_string, result) VALUES
  ('GCAGCAGCTT', 1.01),
  ('CCTTGGACGG', 1.03),
  ('CATGGGGGCT', 0.964),
  ('GGGCAAAGGG', 0.999),
  ('TTTAATCGTT', 0.999),
  ('GAAATTAAGC', 1.06);

Name the recorded switch fluorescence ratio of the sequence listed here: ATTAGGGTAA 1.02

Name the recorded switch fluorescence ratio of the sequence listed here: ATGGCATCGG 1

Name the recorded switch fluorescence ratio of the sequence listed here: CGGGGGGATG 1.01

Name the recorded switch fluorescence ratio of the sequence listed here: GTTTAATCTT 0.99

Name the recorded switch fluorescence ratio of the sequence listed here: GGCTTTCCTG 1.1

Name the recorded switch fluorescence ratio of the sequence listed here: ATTTGAGAGC 0.987

Name the recorded switch fluorescence ratio of the sequence listed here: AGTATAGACC 0.983

Name the recorded switch fluorescence ratio of the sequence listed here: CGCGCGGTTT 1.02

Name the recorded switch fluorescence ratio of the sequence listed here: ACATACTGCG 1.32

Name the recorded switch fluorescence ratio of the sequence listed here: ACCGGGGCTA 1.03

Name the recorded switch fluorescence ratio of the sequence listed here: CTTTGGTGTC 1.01

Name the recorded switch fluorescence ratio of the sequence listed here: TATTTGTCAT 1.02

Name the recorded switch fluorescence ratio of the sequence listed here: ACGGTGATGG 1.02

Name the recorded switch fluorescence ratio of the sequence listed here: TGAGGCAGGG 1.04

Name the recorded switch fluorescence ratio of the sequence listed here: TGTTTTGTTT 0.995

Name the recorded switch fluorescence ratio of the sequence listed here: CGCCGTGTCA 1.02

Name the recorded switch fluorescence ratio of the sequence listed here: TGCCTGTGCG 1.04

Name the recorded switch fluorescence ratio of the sequence listed here: TGGGGGGCTA 1.02

Name the recorded switch fluorescence ratio of the sequence listed here: ATATTAGAAC 1.01

Name the recorded switch fluorescence ratio of the sequence listed here: TTTATAATTA 0.982

Name the recorded switch fluorescence ratio of the sequence listed here: AGTTTGTAGT 1

Name the recorded switch fluorescence ratio of the sequence listed here: TAGCGGAAGT 0.999

Name the recorded switch fluorescence ratio of the sequence listed here: AAGGAAGAGG 0.984

Name the recorded switch fluorescence ratio of the sequence listed here: TCATCAGTGA 0.998

---

Let's look at some sequences and their measured switch fluorescence ratio.
- Tested on: ATP;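 note: ATP exposure 15 min at 22 °C before imaging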
- MEASUREMENT_NOTES: switch fluorescence ratio, 500 uM ATP over buffer (Cy3 cluster intensity, sum of 5 cycles each) (fold (ratio)); higher = stronger signal-on switching upon ATP binding; sequences stand for … in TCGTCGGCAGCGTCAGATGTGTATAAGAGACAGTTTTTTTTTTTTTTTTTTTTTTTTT…TC
- CONDITIONS: aptamer strand: ATP DNA aptamer (quencher-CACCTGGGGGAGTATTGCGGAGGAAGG + anchor), 100 nM annealed; ATP concentration: 500 uM

Please review the entries below; each comes with its answer.
INSERT INTO results (residue_string, tested_on, result) VALUES
  ('AGATTCTGTA', 'ATP', 0.97),
  ('CAAGGGGGTA', 'ATP', 0.995),
  ('ATAAGCGCGT', 'ATP', 0.999),
  ('TGACGGGCAC', 'ATP', 1.17),
  ('AGGAATTTGG', 'ATP', 0.978);

Name the recorded switch fluorescence ratio of the sequence listed here: ATCGGGAGGT 1.04

Name the recorded switch fluorescence ratio of the sequence listed here: ATAATGACGT 1.01

Name the recorded switch fluorescence ratio of the sequence listed here: CCCGGGTTGT 1.16

Name the recorded switch fluorescence ratio of the sequence listed here: CTCTTTACGG 1

Name the recorded switch fluorescence ratio of the sequence listed here: CCAGTGTGGT 1.07
